subject-of-test: AQ STING (G230A-R293Q) (Homo sapiens, UniProt Q86WV6, G230A/H232R/R293Q)
Construct: 8xHis (N, cleaved yes); SUMO (N, cleaved yes); made in house; host or cells: E. coli Rosetta-gami B (DE3)
Sequence (Q86WV6 140-343 G230A/H232R/R293Q): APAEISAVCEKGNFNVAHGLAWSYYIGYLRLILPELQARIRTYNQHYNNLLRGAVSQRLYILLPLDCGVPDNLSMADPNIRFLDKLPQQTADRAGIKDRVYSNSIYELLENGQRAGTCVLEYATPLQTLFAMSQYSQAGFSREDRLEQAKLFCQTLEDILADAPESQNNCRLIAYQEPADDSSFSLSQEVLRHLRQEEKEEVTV
experiment-description: Differential scanning fluorimetry (DSF) with AQ STING
Assay type: binding
experimental-context: thermal shift vs apoprotein; 150 μM CDN; truncated human AQ STING 0.1 mg/ml
measurement-name: DSF ΔTm (° C.) AQ STING (°C)

[[record]]
compound = "Nc1ncnc2c1ncn2[C@@H]1C[C@@H]2COP(=O)(S)O[C@@H]3[C@@H](COP(=O)(S)O[C@H]2[C@H]1F)C[C@@H](n1cnc2c(N)ncnc21)[C@@H]3F (single isomer, unassigned) [Compound 128b]"
measured_result = 17.5

[[record]]
compound = "Nc1nc2c(ncn2[C@@H]2C[C@@H]3COP(=O)(O)O[C@H]4[C@@H](O)[C@H](n5cnc6c(N)ncnc65)O[C@@H]4COP(=O)(O)O[C@H]3[C@H]2O)c(=O)[nH]1"
measured_result = 11.3

[[record]]
compound = "Nc1nc2c(ncn2[C@H]2CC3OP(=O)(S)OC[C@H]4O[C@@H](n5cnc6c(N)ncnc65)C(F)C4OP(=O)(S)OC[C@H]3C2)c(=O)[nH]1 (single isomer, unassigned) [Compound 129b]"
measured_result = 13.2


----------
subject-of-test: WT STING (Homo sapiens, UniProt Q86WV6, H232R)
Sequence (Q86WV6 140-343 H232R): as the sequence (Q86WV6 140-343 G230A/H232R/R293Q) above, with A91G, Q154R counted along it
experiment-description: Differential scanning fluorimetry (DSF) with WT STING
Type: binding
Design: 8xHis (N, cleaved yes); SUMO (N, cleaved yes); made in house; host or cells: E. coli Rosetta-gami B (DE3)
experimental-context: thermal shift vs apoprotein; 150 μM CDN; truncated human WT STING 0.1 mg/ml
measurement-name: DSF ΔTm (° C.) WT STING (°C)

1 = Nc1nc2c(ncn2[C@@H]2O[C@@H]3COP(=O)(O)O[C@H]4[C@@H](O)[C@H](n5cnc6c(=O)[nH]c(N)nc65)O[C@@H]4COP(=O)(O)O[C@H]3[C@H]2O)c(=O)[nH]1 [3′3′c-di-GMP, reference compound]
2 = Nc1ncnc2c1ncn2[C@@H]1C[C@@H]2COP(=O)(O)OC3C(F)[C@H](n4cnc5c(N)ncnc54)O[C@@H]3COP(=O)(S)OC2C1F (single isomer, unassigned) [Compound 141b]
Which record would sort first by descending DSF ΔTm (° C.) WT STING, 1 or 2 ? Answer format: the label of the selected item.
2

P = Nc1ncnc2c1ncn2[C@@H]1O[C@@H]2COP(=O)(O)O[C@H]3[C@@H](O)[C@H](n4cnc5c(N)ncnc54)O[C@@H]3COP(=O)(O)O[C@H]2[C@H]1O [3′3′c-di-AMP, reference compound]
Q = Nc1nc2c(ncn2[C@@H]2O[C@@H]3COP(=O)(O)OC4C(O)[C@H](n5cnc6c(N)ncnc65)C[C@@H]4COP(=O)(O)OC3C2F)c(=O)[nH]1 (single isomer, unassigned) [Compound 111]
R = Nc1ncnc2c1ncn2[C@@H]1C[C@@H]2COP(=O)(O)OC3C(F)[C@H](n4cnc5c(N)ncnc54)O[C@@H]3COP(=O)(S)OC2C1F (single isomer, unassigned) [Compound 141a]
Put the compounds in ascending order of DSF ΔTm (° C.) WT STING. Hello, could you send the labels back in the order asked? Thank you.
R, P, Q

----------
subject-of-test: WT STING (Homo sapiens, UniProt Q86WV6, H232R)
experiment-description: Differential scanning fluorimetry (DSF) with WT STING
Assay type: binding
Design: 8xHis (N, cleaved yes); SUMO (N, cleaved yes); made in house; host or cells: E. coli Rosetta-gami B (DE3)
experimental-context: thermal shift vs apoprotein; 150 μM CDN; truncated human WT STING 0.1 mg/ml
measurement-name: ΔTm at 150 µM (°C)

Here is how some molecules turned out for ΔTm at 150 µM.
[[record]]
molecule = "Nc1ncnc2c1ncn2[C@@H]1O[C@@H]2COP(=O)(O)OC3C(O)[C@H](n4cnc5c(=O)[nH]cnc54)C[C@@H]3COP(=O)(O)OC2C1O (some centres unmarked)"
measured_result = 3.4

[[record]]
molecule = "Nc1nc2c(ncn2[C@@H]2C[C@@H]3COP(=O)(O)OC4C(F)[C@H](n5cnc6c(=O)[nH]c(N)nc65)O[C@@H]4COP(=O)(O)OC3C2O)c(=O)[nH]1 (some centres unmarked)"
measured_result = 3.5

[[record]]
molecule = "Nc1nc2c(ncn2[C@@H]2O[C@@H]3COP(=O)(O)O[C@@H]4[C@@H](COP(=O)(O)O[C@H]3[C@H]2F)C[C@@H](n2cnc3c(N)ncnc32)[C@@H]4F)c(=O)[nH]1"
measured_result = 13.4

[[record]]
molecule = "Nc1ncnc2c1ncn2[C@@H]1C[C@@H]2COP(=O)(O)O[C@H]3[C@@H](F)[C@H](n4cnc5c(N)ncnc54)O[C@@H]3COP(=O)(O)O[C@H]2[C@@H]1F"
measured_result = 2.6

[[record]]
molecule = "Nc1ncnc2c1ncn2[C@H]1CC2OP(=O)(O)OC[C@H]3C[C@@H](n4cnc5c(N)ncnc54)CC3OP(=O)(O)OC[C@H]2C1 (some centres unmarked)"
measured_result = 0.7

[[record]]
molecule = "COC1C2OP(=O)(O)OC[C@H]3C[C@@H](n4cnc5c(N)ncnc54)C(O)C3OP(=O)(O)OC[C@H]2O[C@H]1n1cnc2c(=O)[nH]c(N)nc21 (some centres unmarked)"
measured_result = 0.4


I = Nc1nc2c(ncn2[C@H]2CC3OP(=O)(O)OC[C@H]4O[C@@H](n5cnc6c(N)ncnc65)CC4OP(=O)(O)OC[C@H]3C2)c(=O)[nH]1 (some centres unmarked)
II = Nc1ncnc2c1ncn2[C@@H]1C[C@@H]2COP(=O)(O)OC3C(F)[C@H](n4cnc5c(N)ncnc54)O[C@@H]3COP(=O)(O)OC2C1F (some centres unmarked)
Two entries are listed, I and II . Which one carries the higher ΔTm at 150 µM? Reply briefly: the label of your chosen item.
II
(II: 10.3 °C, I: 2.2 °C)

A = Nc1ncnc2c1ncn2[C@@H]1C[C@@H]2COP(=O)(O)O[C@H]3[C@@H](F)[C@H](n4cnc5c(N)ncnc54)O[C@@H]3COP(=O)(S)O[C@H]2[C@H]1F (single isomer, unassigned) [Compound 130a]
B = Nc1ncnc2c1ncn2[C@@H]1C[C@@H]2COP(=O)(S)O[C@@H]3[C@@H](COP(=O)(S)O[C@H]2[C@H]1F)C[C@@H](n1cnc2c(N)ncnc21)[C@@H]3F (single isomer, unassigned) [Compound 128a]
C = Nc1ncnc2c1ncn2[C@@H]1C[C@@H]2COP(=O)(S)OC3C(F)[C@H](n4cnc5c(N)ncnc54)O[C@@H]3COP(=O)(S)OC2C1F (single isomer, unassigned) [Compound 102a]
D = Nc1nc2c(ncn2[C@@H]2C[C@@H]3COP(=O)(O)OC4C[C@H](n5cnc6c(N)ncnc65)O[C@@H]4COP(=O)(O)OC3C2O)c(=O)[nH]1 (some centres unmarked)
rank_up(items): orders items by reported ΔTm at 150 µM in ascending numerical order. Give the labels in the order requested.
D, C, B, A

----------
subject-of-test: AQ STING (G230A-R293Q) (Homo sapiens, UniProt Q86WV6, G230A/H232R/R293Q)
Construct: 8xHis (N, cleaved yes); SUMO (N, cleaved yes); made in house; host or cells: E. coli Rosetta-gami B (DE3)
experiment-description: Differential scanning fluorimetry (DSF) with AQ STING
Type: binding
experimental-context: thermal shift vs apoprotein; 150 μM CDN; truncated human AQ STING 0.1 mg/ml
measurement-name: DSF ΔTm (° C.) AQ STING (°C)

Guide cases for DSF ΔTm (° C.) AQ STING, answers given:
[[record]]
molecule = "Nc1nc2c(ncn2[C@@H]2C[C@@H]3COP(=O)(O)OC4C(F)[C@H](n5cnc6c(N)ncnc65)O[C@@H]4COP(=O)(O)OC3C2O)c(=O)[nH]1 (single isomer, unassigned) [Compound 105]"
measurement_name = "DSF ΔTm (° C.) AQ STING"
measured_result = 7.0

[[record]]
molecule = "Nc1nc2c(ncn2[C@@H]2O[C@@H]3COP(=O)(O)O[C@H]4[C@@H](O)[C@H](n5cnc6c(=O)[nH]c(N)nc65)O[C@@H]4COP(=O)(O)O[C@H]3[C@H]2O)c(=O)[nH]1 [3′3′c-di-GMP, reference compound]"
measurement_name = "DSF ΔTm (° C.) AQ STING"
measured_result = 7.7

[[record]]
molecule = "Nc1nc2c(ncn2[C@@H]2O[C@@H]3COP(=O)(O)OC4C(O)[C@H](n5cnc6c(N)ncnc65)C[C@@H]4COP(=O)(O)OC3C2O)c(=O)[nH]1 (stereo partly shown)"
measurement_name = "DSF ΔTm (° C.) AQ STING"
measured_result = 13.2

[[record]]
molecule = "Nc1ncnc2c1ncn2[C@@H]1C[C@@H]2COP(=O)(O)O[C@H]3[C@@H](F)[C@H](n4cnc5c(N)ncnc54)O[C@@H]3COP(=O)(S)O[C@H]2[C@H]1F (single isomer, unassigned) [Compound 130b]"
measurement_name = "DSF ΔTm (° C.) AQ STING"
measured_result = 20.3


I = Nc1nc2c(ncn2[C@@H]2O[C@@H]3COP(=O)(O)O[C@@H]4[C@H](O)[C@@H](COP(=O)(O)O[C@@H]2[C@@H]3O)O[C@H]4n2cnc3c(N)ncnc32)c(=O)[nH]1 [2′2′-cGAMP, reference compound]
II = Nc1ncnc2c1ncn2[C@@H]1O[C@@H]2COP(=O)(O)O[C@H]3[C@@H](O)[C@H](n4cnc5c(N)ncnc54)O[C@@H]3COP(=O)(O)O[C@H]2[C@H]1O [3′3′c-di-AMP, reference compound]
III = Nc1ncnc2c1ncn2[C@@H]1C[C@@H]2COP(=O)(O)OC3C(F)[C@H](n4cnc5c(N)ncnc54)O[C@@H]3COP(=O)(S)OC2C1F (single isomer, unassigned) [Compound 141a]
List from greatest to least DSF ΔTm (° C.) AQ STING. Reply with the labels, ordered as the question asks.
I, II, III
